- test.summary: Cytotoxicity against L6 cells (resazurin, 72 h)
- Type: cell-based, rat
- assay.context: L6 rat skeletal myoblast cells; rat L6 myoblasts, 72 h, n = 3; read-out: L6 cells (mean ± SD) EC50
Structures can show the parent of a compound that is named as a salt.
Recorded measurements of EC50 at 72 h, one per entry

# molecule, sign, EC50 at 72 h / µM
rows = [
    ("CCCCCCCCCC(=O)NC(CN1CCOCC1)C(O)c1ccccc1 (stereo not shown) [PDMP (hydrochloride), PDMP]", "=", 33.5),
    ("CC(C)(Oc1ccc(CCNC(=O)c2ccc(Cl)cc2)cc1)C(=O)O [Bezafibrate]", ">", 276),
    ("C1CN2CCC1CC2 [Quinuclidine hydrochloride, Quinuclidine]", ">", 677),
    ("S=C(S)OC1CC2CC1C1CCCC21 (stereo not shown) [D609 (potassium salt), D609]", "=", 247),
]

* * *

- test.summary: Cytotoxicity against L6 cells (resazurin, 72 h)
- Assay type: cell-based, rat
- assay.context: rat
Counter-ions that a name gives are not always drawn.
Recorded measurements of EC50 at 72 h, one per entry

# compound, sign, EC50 at 72 h [µM]
rows = [
    ("NC1CN2CCC1CC2 (centres unmarked) [3-Amino quinuclidine dihydrochloride, 3-Amino quinuclidine]", ">", 502),
    ("O=C(Cn1ccnc1[N+](=O)[O-])NCc1ccccc1", ">", 384),
    ("C=CCN(C)CCCCCCOc1ccc(C(=O)c2ccc(Br)cc2)c(F)c1", "=", 5.7),
    ("CC[C@@H]([C@H](C)O)n1ncn(-c2ccc(N3CCN(c4ccc(OC[C@@H]5CO[C@@](Cn6cncn6)(c6ccc(F)cc6F)C5)cc4)CC3)cc2)c1=O", ">", 1.42),
    ("CCCCCCCCc1ccc(CCC(N)(CO)CO)cc1", "=", 0.39),
    ("OCC1C(O)C(O)C(O)CN1CCCCCOCC12CC3CC(CC(C3)C1)C2 (centres unmarked)", "=", 40.4),
    ("Cc1cc2ncc(NC(=O)Nc3ccc(F)cc3F)c(-c3ccccc3Cl)c2cc1C", "=", 0.12),
    ("CCCCCCCCc1ccc(CCC(N)(CO)COP(=O)(O)O)cc1 (centres unmarked) [FTY720 Phosphate, FTY720-P]", "=", 127),
]

* * *

- test.summary: Cytotoxicity against L6 cells (resazurin, 72 h)
- Format: cell-based, rat
- assay.context: rat L6 myoblasts, 72 h, n = 3; read-out: L6 cells (mean ± SD) EC50
Structures can show the parent of a compound that is named as a salt.
measured.attribute: EC50 at 72 h

# compound, result.value
data = [
    ("CCCCCCC(=O)CCCCCC/C=C/C[C@@H](O)[C@H](O)[C@@](N)(CO)C(=O)O [Myriocin]", "> 249 µM"),
    ("CCCCC(C)C(OC(=O)CC(CC(=O)O)C(=O)O)C(CC(C)CC(O)CCCCC(O)CC(O)C(C)N)OC(=O)CC(CC(=O)O)C(=O)O (stereo not drawn) [Fumonisin B1]", "> 92 µM"),
    ("O=C(/C=C/c1ccc(/C=C/C(=O)Nc2ccc(C3=NCCN3)cc2)cc1)Nc1ccc(C2=NCCN2)cc1 [GW4869 (hydrochloride hydrate), GW4869]", "> 173 µM"),
]
